# Test system: HuVec Cells
# PROTOCOL: GFP plasmid transfection with DOTMA/DOPE plus surface ligand peptide, fluorescent plate reader (Example 1)
# Type: cell-based
# STATED CONDITIONS: DOTMA/DOPE + peptide linked to R12 or K16; EF1Alpha eGFP plasmid; 42 hours
Relative Fluorescence of Transfection of HuVec Cells (RF): recorded values
A bare number is all that is needed in reply.

Example cases with answers are listed next.
{"SUBSTANCE": "358 (GHRGPTGRPGKRGKQGQKGDS) [compound 358]", "ASSAY RESULT": 25398}
{"SUBSTANCE": "352 (RIQNLLKITNLRIKFVK) [compound 352]", "ASSAY RESULT": 3130}
{"SUBSTANCE": "328 (NWRHISYITRFG) [compound 328]", "ASSAY RESULT": 3614}

## Task # return recorded Relative Fluorescence of Transfection of HuVec Cells (RF) for entry 239 (KNSFMALYLSKGRLVFALG) [compound 239]
## Result 1404

## Task # return recorded Relative Fluorescence of Transfection of HuVec Cells (RF) for entry 349 (RNIAEIIKDI) [compound 349]
## Result 22907

## Task # return recorded Relative Fluorescence of Transfection of HuVec Cells (RF) for entry 235 (KARSFNVNQLLQD) [compound 235]
## Result 26940

----------
# Tested on: C2C12 Cells
# PROTOCOL: GFP plasmid transfection with DOTMA/DOPE plus surface ligand peptide, fluorescent plate reader (Example 1)
# Type: cell-based, mouse
# STATED CONDITIONS: DOTMA/DOPE + peptide linked to R12 or K16; EF1Alpha eGFP plasmid; 42 hours
VALUE TYPE: Relative Fluorescence of Transfection of C2C12 Cells (RF)
A bare number is all that is needed in reply.

Example cases with answers are listed next.
{"SUBSTANCE": "335 (TVFSVDQDNMLE) [compound 335]", "SYSTEM UNDER TEST": "C2C12 Cells", "ASSAY RESULT": 4689}
{"SUBSTANCE": "256 (RQVFQVAYIIIKA) [compound 256]", "SYSTEM UNDER TEST": "C2C12 Cells", "ASSAY RESULT": 3207}
{"SUBSTANCE": "347 (DLGTAGSCLRKFSTM) [compound 347]", "SYSTEM UNDER TEST": "C2C12 Cells", "ASSAY RESULT": 4457}

## Task # return recorded Relative Fluorescence of Transfection of C2C12 Cells (RF) for entry 452 (CNYYSNSYSFWLASLNPER) [compound 452]
## Result 21798

----------
Relative Fluorescence of Transfection of C2C12 Cells (RF): recorded values
# System: C2C12 Cells
# PROTOCOL: GFP plasmid transfection with DOTMA/DOPE plus surface ligand peptide, fluorescent plate reader (Example 1)
# Type: cell-based, mouse
# STATED CONDITIONS: DOTMA/DOPE + peptide linked to R12 or K16; EF1Alpha eGFP plasmid; 42 hours
A bare number is all that is needed in reply.

{"SUBSTANCE": "323 (HQQDLGTAGSCLRKFSTMFLF) [compound 323]", "ASSAY RESULT": 7698}
{"SUBSTANCE": "205 (AASIKVAVSADR) [compound 205]", "ASSAY RESULT": 2102}
{"SUBSTANCE": "350 (SIGFRGDGQTC) [compound 350]", "ASSAY RESULT": 2631}
{"SUBSTANCE": "226 (ANGQTPIQRYIK) [compound 226]", "ASSAY RESULT": 1664}
{"SUBSTANCE": "348 (HQQDLGTAGSCLRKFSTM) [compound 348]", "ASSAY RESULT": 8625}
{"SUBSTANCE": "218 (SPPRRARVT) [compound 218]", "ASSAY RESULT": 3706}
{"SUBSTANCE": "454 (TGLSCLQRFTTM) [compound 454]", "ASSAY RESULT": 9280}
{"SUBSTANCE": "332 (TWYKIAFQRNRK) [compound 332]", "ASSAY RESULT": 537}
{"SUBSTANCE": "239 (KNSFMALYLSKGRLVFALG) [compound 239]", "ASSAY RESULT": 10620}
{"SUBSTANCE": "371 (GPAGKDGEAGAQG) [compound 371]", "ASSAY RESULT": 983}

## Task Lab note: C2C12 Cells assay, enter Relative Fluorescence of Transfection of C2C12 Cells (RF) for 503 (TAGSCLRKFSTMRRRRRRRRRRRR) [compound 503] here
## Result 3973

## Task Lab note: C2C12 Cells assay, enter Relative Fluorescence of Transfection of C2C12 Cells (RF) for 367 (TDIPPCPHGWISLWK) [compound 367] here
## Result 16207

Reference source for all entries: patent US20250154525A1
